settings: in n-butanol, 313.15 K
MEASURED QUANTITY: solubility (mole fraction)

## Input Requested read-out: solubility (mole fraction). Entry: CN(C)CCC=C1c2ccccc2CCc2ccccc21.Cl
## Output 0.0765

====

conditions: in 2-methoxyethanol, 293.15 K
MEASURED QUANTITY: solubility (mole fraction)
Give the figure by itself; no unit, no explanation.

## Input What does the record list as solubility (mole fraction) for CN(C)CCC=C1c2ccccc2CCc2ccccc21.Cl ?
## Output 0.143

====

conditions: in NMP, 308.15 K
MEASURED QUANTITY: solubility (mole fraction)
Response field accepts a number only; no unit should be typed.

## Input If you can, please state the reported solubility (mole fraction) value of CN(C)CCC=C1c2ccccc2CCc2ccccc21.Cl .
## Output 0.0543

====

settings: in 2-butoxyethanol, 303.15 K
MEASURED QUANTITY: solubility (mole fraction)
Answer with the value's number alone.

## Input May I ask what solubility (mole fraction) has been recorded for CN(C)CCC=C1c2ccccc2CCc2ccccc21.Cl ?
## Output 0.0722

====

conditions: in 2-butoxyethanol, 283.15 K
MEASURED QUANTITY: solubility (mole fraction)
Respond using a number only.

## Input Consider the molecule shown here: CN(C)CCC=C1c2ccccc2CCc2ccccc21.Cl What is its recorded solubility (mole fraction)?
## Output 0.0494

====

settings: in n-heptanol, 303.15 K
MEASURED QUANTITY: solubility (mole fraction)
Field format: numeric only.

## Input Item under review: CN(C)CCC=C1c2ccccc2CCc2ccccc21.Cl . Reported solubility (mole fraction)?
## Output 0.0274

====

conditions: in methanol, 308.15 K
MEASURED QUANTITY: solubility (mole fraction)
API doc: respond with a numeric literal and nothing else, no unit.

## Input Query: solubility (mole fraction); subject: CN(C)CCC=C1c2ccccc2CCc2ccccc21.Cl
## Output 0.189

====

details: in n-octanol, 323.15 K
MEASURED QUANTITY: solubility (mole fraction)

## Input Dear colleague, I am looking for the recorded solubility (mole fraction) of the following molecule: CN(C)CCC=C1c2ccccc2CCc2ccccc21.Cl
## Output 0.012

====

settings: in methanol, 298.15 K
MEASURED QUANTITY: solubility (mole fraction)
Give a plain numeric answer without units written out.

## Input solubility (mole fraction) for CN(C)CCC=C1c2ccccc2CCc2ccccc21.Cl ?
## Output 0.175

====

conditions: in n-hexanol, 313.15 K
MEASURED QUANTITY: solubility (mole fraction)
When you answer, write just the number.

## Input # query: solubility (mole fraction) of entry CN(C)CCC=C1c2ccccc2CCc2ccccc21.Cl
## Output 0.0492

====

conditions: in n-heptanol, 293.15 K
MEASURED QUANTITY: solubility (mole fraction)
Lab note: jot down the number only; don't add units.

## Input Which solubility (mole fraction) reading was recorded for the compound CN(C)CCC=C1c2ccccc2CCc2ccccc21.Cl ?
## Output 0.0184

====

conditions: in DMF, 303.15 K
MEASURED QUANTITY: solubility (mole fraction)
Answer field: number only, no words.

## Input Returns the measured solubility (mole fraction) for the input compound. Input: CN(C)CCC=C1c2ccccc2CCc2ccccc21.Cl
## Output 0.0466

====

details: in methanol, 288.15 K
MEASURED QUANTITY: solubility (mole fraction)

## Input Recorded solubility (mole fraction) for CN(C)CCC=C1c2ccccc2CCc2ccccc21.Cl , please?
## Output 0.16

Values compiled from BigSolDB 2.1.
